Below, each of the compounds is paired with its reported TGI value.
system: T-47D breast; test: NCI tumour cell line growth inhibition, 48 h
property_measured: TGI

- compound: "Cc1ccc(S(=O)(=O)c2c(O)c3ccc(O)c(C)c3oc2=O)cc1"
  result_value: "> 100 µM"
- compound: "Cc1cc(S(=O)(=O)Nc2n[nH]c(Nc3ccccc3)n2)c(SCC(=O)O)cc1Cl"
  result_value: "> 100 µM"
- compound: "CC(C)=CCC12Cc3ccc(O)cc3C(C(C)CN1)C2C (stereo not drawn)"
  result_value: "> 100 µM"

###

tested on: NCI-H226 lung; experiment: NCI tumour cell line growth inhibition, 48 h
property_measured: TGI

- compound: "CC(=O)C1(O)CCC2(O)C3(O)CC=C4CC(O)CCC4(C)C3CC(OC(=O)c3ccc(O)cc3)C12C (stereo not given)"
  property_measured: "TGI"
  result_value: "> 100 µM"
- compound: "CCCCN1C(=O)CC2[C@@H]3CCc4cc(OC)ccc4C3CC[C@]2(C)C1=O (stereo not given in full)"
  property_measured: "TGI"
  result_value: "> 10 µM"
- compound: "CCCCCCCCCCCCNC(=O)CCC(NC(=O)c1ccc(N(C)Cc2cnc3nc(N)nc(N)c3n2)cc1)C(=O)NCCCCCCCCCCCC (stereo not given)"
  property_measured: "TGI"
  result_value: "> 100 µM"
- compound: "Nc1nncc2[nH]cnc12"
  property_measured: "TGI"
  result_value: "> 100 µM"
- compound: "COc1cc2cc(Oc3ccc(NC(=O)c4cccc(C(F)(F)F)c4)cc3)c(C)nc2cc1OC"
  property_measured: "TGI"
  result_value: "> 100 µM"
- compound: "CC[N+]1(C)CCC(O)(c2ccc(C)cc2)C(C(=O)c2ccc(C)cc2)C1 (stereo not given)"
  property_measured: "TGI"
  result_value: "> 100 µM"
- compound: "N#Cc1nc(C2CCC(=O)O2)oc1N (stereo not given)"
  property_measured: "TGI"
  result_value: "> 100 µM"
- compound: "Cc1ccc(S(=O)(=O)c2c(O)c3ccc(O)c(C)c3oc2=O)cc1"
  property_measured: "TGI"
  result_value: "> 100 µM"
- compound: "COC(=O)C1=CCON(c2ccccc2)C1c1ccccc1 (stereo not given)"
  property_measured: "TGI"
  result_value: "> 100 µM"
- compound: "O=c1c(-c2ccccc2)c(SCCN2CCCCCC2)n(-c2ccccc2)c(=S)n1-c1ccccc1"
  property_measured: "TGI"
  result_value: "> 100 µM"
- compound: "Fc1cccc(COc2ccc(Nc3ncnc4sc(-c5ccco5)cc34)cc2Cl)c1"
  property_measured: "TGI"
  result_value: "> 25 µM"
- compound: "COc1ccc(C2Oc3c(OC)cc(CCCO)cc3C2CO)cc1OC (stereo not given)"
  property_measured: "TGI"
  result_value: "> 100 µM"
- compound: "CC[O-].CC[O-].O=C1C(=C([O-])c2ccccc2)C(=O)c2ccccc21.O=C1C(=C([O-])c2ccccc2)C(=O)c2ccccc21.[Ti+4]"
  property_measured: "TGI"
  result_value: "> 100 µM"
- compound: "COc1cc(Nc2ccnc(N3CCN(c4ccnc5cc(Cl)ccc45)CC3)n2)cc(OC)c1"
  property_measured: "TGI"
  result_value: "> 55.7 µM"
- compound: "Cc1nnc2n1-c1ccccc1N(Cc1ccccc1)CC2"
  property_measured: "TGI"
  result_value: "> 100 µM"

Reference source for all entries: PubChem BioAssay (NCI)
